glass transition temperature values by entry

| compound | glass transition temperature / °C |
| --- | --- |
| *CC(*)C(=O)Oc1c(Cl)c(Cl)c(Cl)c(Cl)c1Cl (repeat unit) | 145.00 |
| *C(=O)c1ccc2c(c1)C(=O)N(c1cccc(Nc3nc(Nc4cccc(N5C(=O)c6ccc(*)cc6C5=O)c4)nc(N(C)C)n3)c1)C2=O (repeat unit) | 294.00 |
| *CCN(*)C(=O)c1c(F)c(F)c(F)c(F)c1F (repeat unit) | 136.00 |
| *Nc1ccc(C(c2ccc(NC(=O)c3ccc(C(*)=O)cc3)cc2)(P2(=O)Oc3ccccc3-c3ccccc32)P2(=O)Oc3ccccc3-c3ccccc32)cc1 (repeat unit) | 245.00 |
| *=Nc1ccc(Cc2ccc(NC(=*)CCCC)cc2)cc1 (repeat unit) | 106.00 |
| *c1ccc2c(c1)C(=O)N(c1ccc(S(=O)(=O)c3ccc(S(=O)(=O)c4ccc(S(=O)(=O)c5ccc(N6C(=O)c7ccc(C(*)(C(F)(F)F)C(F)(F)F)cc7C6=O)cc5)cc4)cc3)cc1)C2=O (repeat unit) | 327.00 |
| *O[Si](C)(CCC(F)(F)F)O[Si](C)(CCC(F)(F)F)O[Si](C)(CCC(F)(F)F)CCC(F)(F)C(F)(F)C(F)(F)C(F)(F)C(F)(F)C(F)(F)CC[Si](*)(C)CCC(F)(F)F (repeat unit) | -43.00 |
| *Oc1ccc(S(=O)(=O)c2ccc(Oc3c(C)cc(-c4cc(C)c(*)c(C)c4Br)c(Br)c3C)cc2)cc1 (repeat unit) | 298.20 |
| *C(=O)Nc1ccc(NC(=O)c2ccc(NC(=O)c3ccc(-c4nc5cc(*)ccc5[nH]4)cc3)cc2)cc1 (repeat unit) | 295.00 |
| *CC(CCCCCCCCCCCCCCCC)C(CCCCCCCCCCCCCCCC)COC(=O)c1ccc(C(=O)O*)cc1 (repeat unit) | -26.00 |
| */C(=C/c1ccc(/C=C(\c2ccccc2)c2ccc(-c3ccc(*)cc3)cc2)cc1)c1ccccc1 (repeat unit) | 220.00 |
| *C1CCC(N2C(=O)c3ccc(S(=O)(=O)c4ccc5c(c4)C(=O)N(*)C5=O)cc3C2=O)CC1 (repeat unit) | 363.00 |
| *CCCCNC(=O)C(OC)C(OC)C(=O)N* (repeat unit) | 100.00 |
| *Oc1ccc(C(=O)OCCOCCOC(=O)c2ccc(OC(*)=O)cc2)cc1 (repeat unit) | 51.00 |
| *c1ccc(Oc2ccc(N3C(=O)c4ccc(S(=O)(=O)c5ccc6c(c5)C(=O)N(*)C6=O)cc4C3=O)cc2Br)c(Br)c1 (repeat unit) | 281.00 |
| *Oc1ccc(Oc2ccc(C(=O)c3ccc(*)cc3)cc2)cc1-c1cc(C)cc(C)c1 (repeat unit) | 162.00 |
| *Oc1ccc(C(C)(C)c2ccc(OC(=O)c3ccc(C(*)=O)cc3)c(C(C)CC)c2)cc1C(C)CC (repeat unit) | 90.00 |
| *OC(=O)c1ccc(CCCCCCc2ccc(C(*)=O)cc2)cc1 (repeat unit) | 20.00 |
| *c1ccc(Oc2ccc(-c3ccc(Oc4ccc(N5C(=O)c6cccc(Oc7cc(C(C)(C)C)c(Oc8cccc9c8C(=O)N(*)C9=O)cc7C(C)(C)C)c6C5=O)cc4)cc3)cc2)cc1 (repeat unit) | 275.00 |
| *c1ccc(Oc2ccccc2Oc2ccc(N3C(=O)c4ccc(Oc5ccccc5Oc5ccc6c(c5)C(=O)N(*)C6=O)cc4C3=O)cc2C(F)(F)F)c(C(F)(F)F)c1 (repeat unit) | 185.00 |
| *CC(C)(C)O* (repeat unit) | 40.50 |
| *Oc1ccc(C(CC)(CC)c2ccc(OC(*)=S)cc2)cc1 (repeat unit) | 121.00 |
| *O[Si](*)(C)C (repeat unit) [Poly(dimethylsiloxane)] | -124 |
| *c1ccc(Sc2cc3c(cc2Sc2ccc(N4C(=O)C5C6C=CC(C7C(=O)N(*)C(=O)C67)C5C4=O)cc2)C(=O)N(c2ccc(CC)cc2)C3=O)cc1 (repeat unit) | 320.00 |
| *c1cccc(OP(=O)(Oc2cccc(-n3c(=O)c4cc5c(=O)n(*)c(=O)c5cc4c3=O)c2)c2ccccc2)c1 (repeat unit) | 191.00 |
| *c1ccc(Oc2ccc(S(=O)(=O)c3ccc(Oc4ccc(N5C(=O)C6CCC(C7CCC8C(=O)N(*)C(=O)C8C7)CC6C5=O)cc4)cc3)cc2)cc1 (repeat unit) | 256.50 |
| *Oc1ccc(C2(c3ccc(OC(=O)c4ccc(C(*)=O)cc4)cc3)CC3CC2C2CCCC32)cc1 (repeat unit) | 322.00 |
| *c1ccc(Oc2ccc(-c3nc4cc(Oc5ccc(NC(=O)CN6C(=O)c7ccc(C(c8ccc9c(c8)C(=O)N(CC(=O)Nc8ccc(Oc%10ccc%11nc(-c%12ccccc%12)c(*)nc%11c%10)cc8)C9=O)(C(F)(F)F)C(F)(F)F)cc7C6=O)cc5)ccc4nc3-c3ccccc3)cc2)cc1 (repeat unit) | 260.00 |
